Entry source: patent US20120028995A1

tested_on: aminopeptidase N (APN), purified recombinant human enzyme (Homo sapiens)
Construct: made in house; host or cells: ECV cells (transfected)
Sequence (P15144 whole entry): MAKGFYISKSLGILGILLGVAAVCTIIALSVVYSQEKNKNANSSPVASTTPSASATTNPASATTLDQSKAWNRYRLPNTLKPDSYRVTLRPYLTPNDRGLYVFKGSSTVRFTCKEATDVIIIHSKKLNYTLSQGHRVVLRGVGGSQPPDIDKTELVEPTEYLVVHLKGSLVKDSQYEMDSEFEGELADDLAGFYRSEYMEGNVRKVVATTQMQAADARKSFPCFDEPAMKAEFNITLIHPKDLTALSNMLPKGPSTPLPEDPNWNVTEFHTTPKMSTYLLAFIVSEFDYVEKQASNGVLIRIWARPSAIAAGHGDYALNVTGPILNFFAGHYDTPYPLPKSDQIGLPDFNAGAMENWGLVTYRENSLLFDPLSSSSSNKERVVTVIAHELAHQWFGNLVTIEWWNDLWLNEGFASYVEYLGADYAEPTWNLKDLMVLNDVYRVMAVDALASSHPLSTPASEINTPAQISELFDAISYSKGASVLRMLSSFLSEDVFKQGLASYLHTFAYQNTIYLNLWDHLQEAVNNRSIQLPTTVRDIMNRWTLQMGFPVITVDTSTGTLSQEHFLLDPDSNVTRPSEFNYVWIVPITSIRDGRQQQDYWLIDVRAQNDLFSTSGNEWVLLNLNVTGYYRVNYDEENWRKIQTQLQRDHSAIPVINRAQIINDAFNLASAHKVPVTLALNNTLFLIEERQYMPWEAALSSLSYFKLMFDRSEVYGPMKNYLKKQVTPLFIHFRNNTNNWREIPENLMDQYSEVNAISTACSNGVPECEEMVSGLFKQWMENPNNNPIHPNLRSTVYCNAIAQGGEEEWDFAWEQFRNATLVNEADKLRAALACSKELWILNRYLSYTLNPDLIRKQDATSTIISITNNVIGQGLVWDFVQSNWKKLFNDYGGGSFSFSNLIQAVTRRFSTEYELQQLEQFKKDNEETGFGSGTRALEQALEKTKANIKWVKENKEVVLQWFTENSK
assay_explanation: Inhibition of enzymatic activity of aminopeptidase N (fluorogenic substrate hydrolysis)
Assay type: biochemical
measurement_parameters: highest test item concentration 25 μM
experimental_readout: meas. IC50 (APN)

# example entries with known answers
molecule | meas. IC50 (APN)
CC(C)(CNC(=O)CC(Cc1cc(F)ccc1F)NC(=O)C(C)(C)C)CNC(=O)C(O)C(COCc1ccccc1)NC(=O)C(C)(C)C (stereo not drawn) | no in- hibition
CC(=O)NC(Cc1ccccc1)C(O)C(=O)NCCCS(=O)(=O)NCC(Cc1cc(F)ccc1F)NC(=O)OC(C)(C)C (stereo not drawn) | no in- hibition
CC(C)(CNC(=O)CC(Cc1cc(F)ccc1F)NC(=O)OC(C)(C)C)CNC(=O)C(O)C(COCc1ccccc1)NC(=O)OC(C)(C)C (stereo not drawn) [Compound C19.004] | no in- hibition
CCCCCC(=O)NC(CC(=O)NCC(C)(C)CNC(=O)C(OC(=O)CCCCC)C(COCc1ccccc1)NC(=O)CCCCC)Cc1cc(F)ccc1F (stereo not drawn) | no in- hibition
COc1ccc(COCC(NC(=O)OC(C)(C)C)C(O)C(=O)NCC(C)(C)CNC(=O)CC(Cc2cc(F)ccc2F)NC(=O)OC(C)(C)C)cc1 (stereo not drawn) | no in- hibition

Next:
Prompt: Name the recorded meas. IC50 (APN) for CC(C)(C)OC(=O)NC(CCCCNC(=O)C(S)C(Cc1ccccc1)NC(=O)OC(C)(C)C)C(=O)N1CCSC1 (stereo not drawn) .
Response: no in- hibition
